- tested-on: TAS2R38 (Homo sapiens, UniProt P59533)
- Sequence (P59533 whole entry): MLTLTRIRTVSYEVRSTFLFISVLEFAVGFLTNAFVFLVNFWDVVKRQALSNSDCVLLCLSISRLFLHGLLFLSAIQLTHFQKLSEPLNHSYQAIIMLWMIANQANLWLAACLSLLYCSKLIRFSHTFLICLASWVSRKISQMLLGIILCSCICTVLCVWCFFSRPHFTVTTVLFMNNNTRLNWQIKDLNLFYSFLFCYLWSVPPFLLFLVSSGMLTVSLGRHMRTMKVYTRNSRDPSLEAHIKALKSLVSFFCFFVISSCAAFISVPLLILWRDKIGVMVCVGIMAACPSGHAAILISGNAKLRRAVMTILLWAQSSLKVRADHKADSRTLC
- method-summary: Calcium mobilization assay, HEK293T-Gα16gust44 cells expressing TAS2R38
- test-context: maximal concentration tested: sucralose 100 mM, neotame 30 µM, Ace-K 300 mM, RebA 4 mM, RebM 4 mM, mogroside V 5 mM, erythritol 200 mM, D-allulose 500 mM, thaumatin 100 mM
property-label: Response of TAS2R38

Check out these entries, answers already filled in.
- molecule: "O=C(CO)[C@H](O)[C@H](O)[C@H](O)CO"
  Response of TAS2R38: "+"
- molecule: "OC[C@@H](O)[C@@H](O)CO"
  Response of TAS2R38: "−"
- molecule: "C=C1C[C@@]23CC[C@H]4[C@@](C)(CCC[C@@]4(C)C(=O)O[C@@H]4O[C@H](CO)[C@@H](O)[C@H](O[C@@H]5O[C@H](CO)[C@@H](O)[C@H](O)[C@H]5O)[C@H]4O[C@@H]4O[C@H](CO)[C@@H](O)[C@H](O)[C@H]4O)[C@@H]2CC[C@]1(O[C@@H]1O[C@H](CO)[C@@H](O)[C@H](O[C@@H]2O[C@H](CO)[C@@H](O)[C@H](O)[C@H]2O)[C@H]1O[C@@H]1O[C@H](CO)[C@@H](O)[C@H](O)[C@H]1O)C3 [RebM, Rebaudioside M]"
  Response of TAS2R38: "−"
- molecule: "CC1=CC(=O)NS(=O)(=O)O1"
  Response of TAS2R38: "−"

input: Which Response of TAS2R38 value is on record for "OC[C@H]1O[C@H](O[C@]2(CCl)O[C@H](CCl)[C@@H](O)[C@@H]2O)[C@H](O)[C@@H](O)[C@H]1Cl" ?
output: −

input: Look at this molecule and give its reported Response of TAS2R38. "COC(=O)[C@H](Cc1ccccc1)NC(=O)[C@H](CC(=O)O)NCCC(C)(C)C"
output: −
